# test system: Voltage-dependent T-type calcium channel subunit alpha-1G (Homo sapiens, UniProt O43497)
# Sequence (O43497 whole entry): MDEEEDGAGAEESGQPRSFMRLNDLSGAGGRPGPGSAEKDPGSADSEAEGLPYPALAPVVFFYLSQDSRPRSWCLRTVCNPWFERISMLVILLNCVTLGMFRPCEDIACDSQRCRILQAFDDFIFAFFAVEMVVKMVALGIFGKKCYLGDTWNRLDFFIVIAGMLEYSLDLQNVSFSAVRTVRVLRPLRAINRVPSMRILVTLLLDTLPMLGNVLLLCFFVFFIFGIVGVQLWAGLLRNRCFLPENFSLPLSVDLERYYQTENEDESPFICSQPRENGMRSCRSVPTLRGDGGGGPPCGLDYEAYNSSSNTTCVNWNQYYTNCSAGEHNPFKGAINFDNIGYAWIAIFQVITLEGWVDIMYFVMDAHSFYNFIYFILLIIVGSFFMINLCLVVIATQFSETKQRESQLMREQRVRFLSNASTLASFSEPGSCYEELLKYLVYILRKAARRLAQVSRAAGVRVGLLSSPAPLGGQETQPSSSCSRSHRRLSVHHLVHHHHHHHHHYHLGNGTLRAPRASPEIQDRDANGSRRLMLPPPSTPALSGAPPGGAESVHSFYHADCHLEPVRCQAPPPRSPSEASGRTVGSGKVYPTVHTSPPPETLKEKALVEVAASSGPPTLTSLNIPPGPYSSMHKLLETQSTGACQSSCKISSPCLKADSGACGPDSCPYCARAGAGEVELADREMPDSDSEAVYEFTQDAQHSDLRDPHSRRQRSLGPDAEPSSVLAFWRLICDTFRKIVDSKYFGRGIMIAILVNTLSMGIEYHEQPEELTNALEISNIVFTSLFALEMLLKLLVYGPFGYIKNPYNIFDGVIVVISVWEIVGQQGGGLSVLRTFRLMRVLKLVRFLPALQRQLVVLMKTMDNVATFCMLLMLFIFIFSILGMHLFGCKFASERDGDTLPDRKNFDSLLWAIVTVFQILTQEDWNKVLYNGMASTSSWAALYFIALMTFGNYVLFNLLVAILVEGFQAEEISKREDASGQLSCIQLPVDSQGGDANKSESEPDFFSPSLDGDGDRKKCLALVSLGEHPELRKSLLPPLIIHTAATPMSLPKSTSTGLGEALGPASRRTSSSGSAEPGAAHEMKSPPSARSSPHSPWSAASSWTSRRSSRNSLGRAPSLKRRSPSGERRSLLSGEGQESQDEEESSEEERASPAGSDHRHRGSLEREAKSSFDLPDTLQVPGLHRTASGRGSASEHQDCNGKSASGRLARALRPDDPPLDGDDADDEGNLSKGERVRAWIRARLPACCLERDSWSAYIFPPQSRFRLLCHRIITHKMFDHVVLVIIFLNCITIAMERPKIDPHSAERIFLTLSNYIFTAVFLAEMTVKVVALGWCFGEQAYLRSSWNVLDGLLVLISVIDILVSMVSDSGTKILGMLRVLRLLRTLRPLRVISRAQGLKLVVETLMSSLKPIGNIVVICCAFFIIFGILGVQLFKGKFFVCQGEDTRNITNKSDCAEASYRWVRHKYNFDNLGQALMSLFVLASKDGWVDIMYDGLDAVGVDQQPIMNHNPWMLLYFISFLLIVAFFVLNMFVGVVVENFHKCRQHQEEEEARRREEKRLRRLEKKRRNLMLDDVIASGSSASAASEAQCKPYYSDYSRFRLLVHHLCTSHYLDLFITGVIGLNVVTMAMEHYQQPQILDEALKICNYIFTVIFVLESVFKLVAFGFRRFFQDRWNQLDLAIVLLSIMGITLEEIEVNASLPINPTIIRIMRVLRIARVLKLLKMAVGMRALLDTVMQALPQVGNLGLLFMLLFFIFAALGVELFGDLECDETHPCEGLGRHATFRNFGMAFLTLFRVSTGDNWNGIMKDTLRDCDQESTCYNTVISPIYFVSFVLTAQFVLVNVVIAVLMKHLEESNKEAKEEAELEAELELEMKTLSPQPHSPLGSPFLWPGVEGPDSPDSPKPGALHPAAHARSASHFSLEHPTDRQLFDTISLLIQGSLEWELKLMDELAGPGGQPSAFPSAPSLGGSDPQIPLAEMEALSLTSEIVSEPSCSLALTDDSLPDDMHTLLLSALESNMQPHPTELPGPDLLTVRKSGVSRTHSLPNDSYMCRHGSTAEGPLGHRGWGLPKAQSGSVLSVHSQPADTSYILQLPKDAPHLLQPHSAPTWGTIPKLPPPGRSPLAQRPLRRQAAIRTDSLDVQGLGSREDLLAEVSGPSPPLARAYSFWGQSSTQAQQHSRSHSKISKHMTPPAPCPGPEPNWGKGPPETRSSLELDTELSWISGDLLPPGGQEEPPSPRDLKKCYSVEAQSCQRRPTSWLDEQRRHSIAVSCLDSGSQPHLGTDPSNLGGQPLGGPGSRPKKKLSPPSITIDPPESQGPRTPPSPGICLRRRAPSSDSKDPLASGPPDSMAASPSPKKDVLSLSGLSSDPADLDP
# assay details: Inhibition of T-type CaV3.1 channel expressed in HEK293 cells assessed as inhibition of calcium current by automated patch-clamp assay
// IC50 lookup, one value per entry
property: IC50 (µM)

{"molecular string": "CCCc1nc(-c2ccccc2)c(CNCCN2CCN(c3cccc(Cl)c3)CC2)o1", "property": "IC50", "quantitative readout": 1.45}
{"molecular string": "CCCc1nc(-c2ccccc2)c(CNCCN2CCN(c3ccccc3C)CC2)o1", "property": "IC50", "quantitative readout": 4.3}
{"molecular string": "CCCc1nc(-c2ccccc2)c(CNCCN2CCN(c3ccc(C)cc3C)CC2)o1", "property": "IC50", "quantitative readout": 2.22}
{"molecular string": "CCCc1nc(-c2ccccc2)c(CNCCN2CCN(c3ccccc3C(F)(F)F)CC2)o1", "property": "IC50", "quantitative readout": 2.1}
{"molecular string": "CCCc1nc(-c2ccccc2)c(CNCCN2CCN(c3cccc(C)c3C)CC2)o1", "property": "IC50", "quantitative readout": 1.71}
{"molecular string": "CCCc1nc(-c2ccccc2)c(CNCCCN2CCN(c3ccc(Cl)cc3)CC2)o1", "property": "IC50", "quantitative readout": 1.31}
{"molecular string": "CCCc1nc(-c2ccccc2)c(CNCCCN2CCN(c3ccc(C)cc3)CC2)o1", "property": "IC50", "quantitative readout": 130}
{"molecular string": "CCCc1nc(-c2ccccc2)c(CNCCCN2CCN(c3ccc(C)c(C)c3)CC2)o1", "property": "IC50", "quantitative readout": 3.02}
{"molecular string": "CCCc1nc(-c2ccccc2)c(CNCCN2CCN(C(c3ccccc3)c3ccccc3)CC2)o1", "property": "IC50", "quantitative readout": 7.47}
{"molecular string": "CCCc1nc(-c2ccccc2)c(CNCCN2CCN(c3ccccc3Cl)CC2)o1", "property": "IC50", "quantitative readout": 4.37}
{"molecular string": "CCCc1nc(-c2ccccc2)c(CNCCN2CCN(c3cccc(C(F)(F)F)c3)CC2)o1", "property": "IC50", "quantitative readout": 1.94}
{"molecular string": "CCCc1nc(-c2ccccc2)c(CNCCCN2CCN(c3cccc(F)c3)CC2)o1", "property": "IC50", "quantitative readout": 3.03}
{"molecular string": "CCCc1nc(-c2ccccc2)c(CNCCN2CCN(c3ccccc3)CC2)o1", "property": "IC50", "quantitative readout": 10.2}
{"molecular string": "CCCc1nc(-c2ccccc2)c(CNCCCN2CCN(c3cccc(Cl)c3)CC2)o1", "property": "IC50", "quantitative readout": 1.75}
{"molecular string": "CCCc1nc(-c2ccccc2)c(CNCCCN2CCN(c3ccccc3F)CC2)o1", "property": "IC50", "quantitative readout": 16.1}
{"molecular string": "CCCc1nc(-c2ccccc2)c(CNCCCN2CCN(c3cccc(C)c3C)CC2)o1", "property": "IC50", "quantitative readout": 1.78}
{"molecular string": "CCCc1nc(-c2ccccc2)c(CNCCCN2CCN(c3ccc(C(F)(F)F)cc3)CC2)o1", "property": "IC50", "quantitative readout": 7.25}
{"molecular string": "CCCc1nc(-c2ccccc2)c(CNCCN2CCN(c3cccc(F)c3)CC2)o1", "property": "IC50", "quantitative readout": 3.35}
{"molecular string": "CCCc1nc(-c2ccccc2)c(CNCCN2CCN(c3ccc(C(F)(F)F)cc3)CC2)o1", "property": "IC50", "quantitative readout": 1.3}
{"molecular string": "CCCc1nc(-c2ccccc2)c(CNCCCN2CCN(c3cccc(C)c3)CC2)o1", "property": "IC50", "quantitative readout": 1.19}
{"molecular string": "CCCc1nc(-c2ccccc2)c(CNCCCN2CCN(c3ccccc3Cl)CC2)o1", "property": "IC50", "quantitative readout": 2.8}
{"molecular string": "CCCc1nc(-c2ccccc2)c(CNCCN2CCN(c3ccc(C)c(C)c3)CC2)o1", "property": "IC50", "quantitative readout": 2.22}
{"molecular string": "CCCc1nc(-c2ccccc2)c(CNCCCN2CCN(c3ccc(F)cc3)CC2)o1", "property": "IC50", "quantitative readout": 3.21}
{"molecular string": "CCCc1nc(-c2ccccc2)c(CNCCCN2CCN(c3cccc(C(F)(F)F)c3)CC2)o1", "property": "IC50", "quantitative readout": 0.65}
{"molecular string": "CCCc1nc(-c2ccccc2)c(CNCCN2CCN(c3ccc(OC)cc3)CC2)o1", "property": "IC50", "quantitative readout": 9.2}
{"molecular string": "CCCc1nc(-c2ccccc2)c(CNCCCN2CCN(c3ccccc3C)CC2)o1", "property": "IC50", "quantitative readout": 8.75}
{"molecular string": "CCCc1nc(-c2ccccc2)c(CNCCN2CCN(c3ccc(Cl)cc3)CC2)o1", "property": "IC50", "quantitative readout": 2.82}
{"molecular string": "CCCc1nc(-c2ccccc2)c(CNCCN2CCN(c3ccc(F)cc3)CC2)o1", "property": "IC50", "quantitative readout": 7.08}
